Source of measurements: patent US12421193B2

biological target: recombinant human GPR52 (Homo sapiens, UniProt Q9Y2T5); assay: TR-FRET cAMP assay (LANCE Ultra cAMP Kit), GPR52 activity; conditions: Flp-In-CHO cells stably expressing recombinant human GPR52; cAMP production, normalized to the positive control
Sequence (Q9Y2T5 whole entry): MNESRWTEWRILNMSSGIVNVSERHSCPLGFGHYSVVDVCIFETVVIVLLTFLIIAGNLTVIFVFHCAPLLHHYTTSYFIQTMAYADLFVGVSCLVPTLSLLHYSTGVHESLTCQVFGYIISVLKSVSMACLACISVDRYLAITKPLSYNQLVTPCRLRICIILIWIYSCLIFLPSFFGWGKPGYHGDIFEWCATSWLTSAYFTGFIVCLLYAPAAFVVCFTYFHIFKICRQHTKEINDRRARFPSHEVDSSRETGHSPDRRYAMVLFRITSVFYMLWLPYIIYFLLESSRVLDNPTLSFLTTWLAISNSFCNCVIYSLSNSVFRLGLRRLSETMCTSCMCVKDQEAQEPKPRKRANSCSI
pEC50: −log10 of the molar value.
Parameter: pEC50

// worked examples, pEC50 included
Inquiry: # query: pEC50 of entry "COc1cc(OCc2ccnc(-c3ccc(C(N)=O)c(C)c3)c2)ccc1C(F)(F)F"
Reply text: 7.00 to 7.60

Inquiry: Name the reported pEC50 value associated with the compound "CC(=O)c1ccc(OCc2ccnc(-c3ccc(C(N)=O)c(C)c3)c2)cc1F"
Reply text: > 7.60

Inquiry: Which value of pEC50 has been reported for "COc1ccc(OCc2cncc(-c3ccc(C(N)=O)c(C)c3)c2)c(Cl)c1" in the records?
Reply text: < 6.00

***
Inquiry: Item "Cc1cc(-c2cc(COc3ccc(Cl)c(C#N)c3)ccn2)ccc1C(N)=O" has what recorded pEC50?
Reply text: 7.00 to 7.60

Inquiry: Consider the compound shown here: "Cc1cc(-c2cc(COc3cncc(C#N)c3)ccn2)ccc1C(N)=O" What is its recorded pEC50?
Reply text: 6.00 to 7.00
